target: human CD40 on cells (B cells, MDDCs, stably transfected CHO cells) (human, UniProt P25942 21-277); assay: cell-based or functional assay
Sequence (P25942 21-277): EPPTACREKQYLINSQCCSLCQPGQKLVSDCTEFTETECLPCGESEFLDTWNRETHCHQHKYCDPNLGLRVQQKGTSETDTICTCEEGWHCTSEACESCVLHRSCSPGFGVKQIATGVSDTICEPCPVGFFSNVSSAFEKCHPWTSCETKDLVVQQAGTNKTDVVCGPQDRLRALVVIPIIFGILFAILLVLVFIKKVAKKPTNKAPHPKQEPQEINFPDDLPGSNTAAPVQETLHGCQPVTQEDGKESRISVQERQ
result.type: EC50/EC50 CP, B cell proliferation

Worked examples, 3 binders total:
anti-CD40 24A3 human IgG4 antibody (antibody, V domains shown, also called mAb4 [24A3]) VH: DVQLQESGPDLVKPSQSLSLTCTVTGYSITSDYSWHWIRQFPGNKLEWMGYIYYSGSTNYNPSLKSRISITRDTSKNQFFLQLNSVTTEDSATYFCARFYYGYSFFDYWGQGTTLTVSS VL: QIVLTQSPAFMSASPGEKVTMTCSASSSVSYMHWYQQKSGTSPKRWIYDTSKLASGVPARFSGSGSGTSYSLTISSMEAEDAATYYCQQWSSNPLTFGAGTK = ≥ 1000 ratio
anti-CD40 12E12 human IgG4 antibody (antibody, V domains shown, also called mAb6 [12E12]; anti-CD40 12E12 IgG4) VH: EVQLVESGGGLVQPGGSLKLSCATSGFTFSDYYMYWVRQAPGKGLEWVAYINSGGGSTYYPDTVKGRFTISRDNAKNTLYLQMNSLRAEDTAVYYCARRGLPFHAMDYWGQGTLVTVSS VL: DIQMTQSPSSLSASVGDRVTITCSASQGISNYLNWYQQKPGKAVKLLIYYTSILHSGVPSRFSGSGSGTDYTLTISSLQPEDFATYYCQQFNKLPPTFGGGTK = ~10 ratio
anti-CD40 12B4 human IgG4 antibody (antibody, V domains shown, also called mAb3 [12B4]) VH: EVQLQQSGPELVKPGASVKMSCKASGYTFTDYVLHWVKQKPGQGLEWIGYINPYNDGTKYNEKFKGKATLTSDKSSSTAYMELSSLTSEDSAVYYCARGYPAYSGYAMDYWGQGTSVTVSS VL: DIQMTQTTSSLSASLGDRVTISCRASQDISNYLNWYQQKPDGTVKLLIYYTSRLHSGVPSRFSGSGSGTDYSLTISNLEQEDIATYFCHHGNTLPWTFGGGTK = ~10 ratio

Read the next record carefully.
[in] For the binder shown here, anti-CD40 11B6 human IgG4 antibody (antibody, V domains shown, also called mAb1 [11B6 VH/VkV2]; PAB3405) VH: EVQLVQSGAEVKKPGASVKISCKASGYSFTGYYMHWVKQAHGQGLEWIGRINPYNGATSYNQNFKDRATLTVDKSTSTAYMELSSLRSEDTAVYYCAREDYVYWGQGTTVTVSS VL: DVVMTQSPLSLPVTLGQPASISCRSSQSLVHSNGNTYLHWYQQRPGQSPRLLIYKVSNRFSGVPDRFSGSGSGTDFTLKISRVEAEDVGVYFCSQSTHVPWTFGGGTKLEIKR , give the reported EC50/EC50 CP, B cell proliferation.
[out] ≥ 100 ratio

Each recorded value in this set is attributed to patent US20220175920A1.
